Assay: Pharmacokinetics of MMMDPB and DPB after oral MMMDPB or NaMMMDPB and intravenous NaMMMDPB
Format: in vivo, Beagle dogs
Details: dog, in vivo, po, 30 mg/kg, Oral, 30 mg/kg, analyte DPB; read-out: AUC0-t
Experimental: In accordance with the present invention, pharmacokinetic parameters were calculated using standard non-compartmental methods, as implemented in WinNonlin™ 4.0.1. […] AUC0-t was calculated using the linear trapezoidal rule, which employs an approximate integration formula. The area of each trapezoid was calculated, and the sum of all the areas of all the trapezoids yielded an estimate of the true area under the curve. […]
ASSAY METRIC: AUC(0-t) (µg·h/mL)
The answer is to be given in µg·h/mL; state only the numeric part.

Note to self: AUC(0-t) recorded for COCN1C(=O)NC(=O)C(c2ccccc2)(c2ccccc2)C1=O was 135

Data provenance: patent EP1781294B1
